Just for reference, patent US9409952B2 is where these values come from.

Overview of recorded Papp at 18 hours, 50 µM for various compounds
assay: PAMPA (parallel artificial membrane permeability assay); type: in vitro ADME; details: PAMPA; membrane permeation rate (Pe); 50 mM MOPSO buffer pH 6.5 with 5.0% glycocholic acid, 37° C., 18 hours; read-out: iPAMPA Pe
Starred links: 1 amine or outer side, 2 acyl side, 3 side chain; linkers in the order of their positions; H or OH if unused. Positions of bridges follow the written chain, without caps; N, C: chain ends. Non-standard residues stand in square brackets, D forms with d. Residues, ends and D or L forms follow the SMILES beside them. *: point of attachment. NMeF = CN[C@@H](Cc1ccccc1)C(=O)O; NMeI = CC[C@H](C)[C@H](NC)C(=O)O; NMeβAla = CN(CCC(=O)[*:2])[*:1]; NMeL = CN[C@@H](CC(C)C)C(=O)O; NMeV = CN[C@H](C(=O)O)C(C)C; NMeA = CN[C@@H](C)C(=O)O; Piperidide = C1CCN(*)CC1; β3hA = C[C@H](N)CC(=O)O; Sar = CNCC(=O)O; tBu = CC(C)(C)*
Kindly provide the numeric value in ×10⁻⁶ cm/s only, without the unit symbol.

compound | quantityKind | valueMeasured
CC(C)C[C@@H]1NC(=O)[C@H](CC(C)C)N(C)C(=O)CCN(C)C(=O)C[C@@H](C(=O)N(C)[C@@H](Cc2ccccc2)C(=O)N[C@@H](C)C(=O)N2CCCCC2)NC(=O)[C@H](C)N(C)C(=O)[C@H]([C@@H](C)O)NC(=O)[C@H](Cc2ccccc2)NC(=O)[C@H](CC(C)C)N(C)C(=O)CNC(=O)[C@H](Cc2ccccc2)N(C)C1=O [DP-446] ([NMeβAla][NMeL]L[NMeF]G[NMeL]FT[NMeA]D[NMeF]A-Piperidide; lactam N-10) | Papp at 18 hours, 50 µM | 40
CC[C@H](C)[C@H]1C(=O)N(C)[C@@H](C)C(=O)N(C)[C@@H](CC(C)C)C(=O)N[C@@H](COC(C)(C)C)C(=O)N(C)[C@@H](CC(C)C)C(=O)N[C@@H](C)CC(=O)N(C)[C@@H](C)C(=O)N(C)[C@@H](Cc2ccccc2)C(=O)N[C@@H](C)C(=O)N(C)[C@@H](CC(C)C)C(=O)N[C@@H]([C@@H](C)O)C(=O)N1C [DP-816] (cyclo(A[NMeL]T[NMeI][NMeA][NMeL]S(tBu)[NMeL][β3hA][NMeA][NMeF])) | Papp at 18 hours, 50 µM | 32
CC(C)C[C@H]1C(=O)N(C)[C@@H](C)C(=O)N[C@H](C(=O)N(C)[C@@H](Cc2ccccc2)C(=O)N[C@@H](C)C(=O)N2CCCCC2)CC(=O)N(C)CC(=O)N[C@@H](C(C)C)C(=O)N(C)[C@@H](Cc2ccccc2)C(=O)N(C)[C@@H](CC(C)C)C(=O)N[C@@H]([C@@H](C)O)C(=O)N(C)CC(=O)N1C [DP-388] ([Sar]V[NMeF][NMeL]T[Sar][NMeL][NMeA]D[NMeF]A-Piperidide; lactam N-9) | Papp at 18 hours, 50 µM | 11

Please fill in: Papp at 18 hours, 50 µM reported for CC[C@H](C)[C@H]1C(=O)N[C@@H](COC(C)(C)C)C(=O)N(C)[C@@H](C(C)C)C(=O)N[C@@H](C)CC(=O)N(C)[C@@H](C)C(=O)N(C)[C@@H](Cc2ccccc2)C(=O)N[C@@H](CC(C)C)C(=O)N(C)[C@@H](CC(C)C)C(=O)N[C@@H]([C@@H](C)O)C(=O)N(C)CC(=O)N1C [DP-820] (cyclo(L[NMeL]T[Sar][NMeI]S(tBu)[NMeV][β3hA][NMeA][NMeF])) = 48

What the record says about CC(C)C[C@H]1C(=O)N(C)[C@@H](C)C(=O)N[C@@H]([C@@H](C)O)C(=O)N(C)[C@@H](C)C(=O)N(C)[C@@H](Cc2ccccc2)C(=O)N[C@@H](Cc2ccccc2)C(=O)N[C@H](C(=O)N(C)[C@@H](Cc2ccccc2)C(=O)N[C@@H](C)C(=O)N2CCCCC2)CC(=O)N(C)CCC(=O)N(C)[C@@H](C)C(=O)N[C@@H](C)C(=O)N(C)CC(=O)N1C [DP-361] ([NMeβAla][NMeA]A[Sar][NMeL][NMeA]T[NMeA][NMeF]FD[NMeF]A-Piperidide; lactam N-11) : Papp at 18 hours, 50 µM is 1.5

---

test: Metabolic stability in human hepatic microsome; assay type: in vitro ADME; details: human, microsomes, pH 7.4, CL NADPH(+)
Where a name gives a salt, the structure may show the parent alone. Starred links: 1 amine or outer side, 2 acyl side, 3 side chain; linkers in the order of their positions; H or OH if unused. Positions of bridges follow the written chain, without caps; N, C: chain ends. Non-standard residues stand in square brackets, D forms with d. Residues, ends and D or L forms follow the SMILES beside them. *: point of attachment. NMeF = CN[C@@H](Cc1ccccc1)C(=O)O; NMeI = CC[C@H](C)[C@H](NC)C(=O)O; NMeβAla = CN(CCC(=O)[*:2])[*:1]; Aoc(2) = CCCCCC[C@H](N)C(=O)O; NMeL = CN[C@@H](CC(C)C)C(=O)O; NMeV = CN[C@H](C(=O)O)C(C)C; NMeA = CN[C@@H](C)C(=O)O; Piperidide = C1CCN(*)CC1; β3hA = C[C@H](N)CC(=O)O; Sar = CNCC(=O)O
quantityKind: microsomal CLint at 1 uM (µL/min/mg)
Give the value in µL/min/mg but do not write µL/min/mg after it.

Previously resolved entries follow.
compound | valueMeasured
CC[C@H](C)[C@@H]1NC(=O)[C@H](CC(C)C)N(C)C(=O)CNC(=O)[C@H](C)NC(=O)C[C@@H](C(=O)N2CCCCC2)NC(=O)[C@@H]2CCCN2C(=O)[C@H](CC(C)C)NC(=O)[C@H](Cc2ccccc2)NC(=O)[C@H]([C@@H](C)O)NC(=O)[C@H](Cc2ccccc2)N(C)C(=O)[C@H](C)N(C)C1=O [DP-30] (AG[NMeL]I[NMeA][NMeF]TFLPD-Piperidide; lactam N-11) | 63
CCCCCC[C@@H]1NC(=O)[C@H](CC(C)C)N(C)C(=O)[C@@H]2CCCN2C(=O)[C@H](C)N(C)C(=O)[C@H](Cc2ccccc2)N(C)C(=O)[C@H](Cc2ccccc2)N(C)C(=O)CN(C)C(=O)[C@H]([C@@H](C)O)NC(=O)[C@H](C)N(C)C(=O)C[C@H](C)NC(=O)[C@H](C(C)C)N(C)C1=O [DP-774] (cyclo([Aoc(2)][NMeV][β3hA][NMeA]T[Sar][NMeF][NMeF][NMeA]P[NMeL])) | 71
CC[C@H](C)[C@H]1C(=O)N[C@@H](CC(C)C)C(=O)N(C)CC(=O)N[C@@H]([C@@H](C)O)C(=O)N[C@@H](Cc2ccccc2)C(=O)N[C@@H](C)C(=O)N(C)[C@@H](CC(C)C)C(=O)N[C@@H](Cc2ccccc2)C(=O)N[C@@H](C(C)C)C(=O)N[C@H](C(=O)N2CCCCC2)CC(=O)N[C@@H](C)C(=O)N[C@@H](CC(C)C)C(=O)N1C [DP-35] (AL[NMeI]L[Sar]TFA[NMeL]FVD-Piperidide; lactam N-12) | 32
CC[C@H](C)[C@H]1C(=O)NCC(=O)N(C)[C@@H](CC(C)C)C(=O)N[C@@H](CC(C)C)C(=O)N[C@H](C(=O)N2CCCCC2)CC(=O)N(C)[C@@H](C)C(=O)N[C@@H](CC(C)C)C(=O)N(C)[C@@H](C)C(=O)N[C@@H]([C@@H](C)O)C(=O)N2CCC[C@H]2C(=O)N(C)[C@@H](Cc2ccccc2)C(=O)N[C@@H](Cc2ccccc2)C(=O)N1C [DP-220] ([NMeA]L[NMeA]TP[NMeF]F[NMeI]G[NMeL]LD-Piperidide; lactam N-12) | 26

// switching to the query compound
Lab note: CC(C)C[C@@H]1NC(=O)CN(C)C(=O)[C@H](C(C)C)N(C)C(=O)[C@H](C)NC(=O)[C@H]([C@@H](C)O)NC(=O)[C@H](CC(C)C)N(C)C(=O)[C@H](C)N(C)C(=O)[C@H](CC(C)C)N(C)C(=O)[C@H](Cc2ccccc2)NC(=O)CCN(C)C(=O)C[C@@H](C(=O)N2CCCCC2)NC1=O [DP-102] ([NMeβAla]F[NMeL][NMeA][NMeL]TA[NMeV][Sar]LD-Piperidide; lactam N-11) gave microsomal CLint at 1 uM of 5

---

experiment: Mouse PK test of peptides (intravenous and oral administration); settings: male, C57BL/6J, in vivo, po, 20 mg/kg
Positions of bridges follow the written chain, without caps; N, C: chain ends. Non-standard residues stand in square brackets, D forms with d. Residues, ends and D or L forms follow the SMILES beside them. *: point of attachment. NMeF = CN[C@@H](Cc1ccccc1)C(=O)O; NMeI = CC[C@H](C)[C@H](NC)C(=O)O; NMeL = CN[C@@H](CC(C)C)C(=O)O; NMeA = CN[C@@H](C)C(=O)O; Piperidide = C1CCN(*)CC1; NPrGly = CCCNCC(=O)O; tBu = CC(C)(C)*
quantityKind: Cmax (ng/mL)
Lab book: enter the figure in ng/mL, no units written.

# count of solved cases: 2
compound | Cmax [ng/mL]
CC[C@H](C)[C@H](NC(=O)[C@@H]1CCCN1C(=O)[C@@H]1CC(=O)N[C@@H](C)C(=O)N[C@@H](CC(C)C)C(=O)N(C)[C@@H]([C@@H](C)CC)C(=O)N[C@@H](C(C)C)C(=O)N(C)[C@@H](Cc2ccccc2)C(=O)N[C@@H](CC(C)C)C(=O)N(C)[C@@H](Cc2ccccc2)C(=O)N1)C(=O)N1CCCCC1 [DP-965] (AL[NMeI]V[NMeF]L[NMeF]DPI-Piperidide; lactam N-8) | 1920
CCCN1CC(=O)N(C)[C@@H](CC(C)C)C(=O)N[C@@H]([C@@H](C)O)C(=O)N(C)[C@@H](C)C(=O)N(C)[C@@H](CC(C)C)C(=O)N(C)[C@@H]([C@@H](C)CC)C(=O)N[C@@H](COC(C)(C)C)C(=O)N[C@H](C(=O)N2CCCCC2)CC(=O)N(C)[C@@H](C)C(=O)N(C)[C@@H](Cc2ccccc2)C1=O [DP-540] ([NMeA][NMeF][NPrGly][NMeL]T[NMeA][NMeL][NMeI]S(tBu)D-Piperidide; lactam N-10) | 1870

Cmax in this record for CCCN1CC(=O)N(C)[C@@H](CC(C)C)C(=O)N[C@@H](COC(C)(C)C)C(=O)N(C)[C@@H](CC(C)C)C(=O)N[C@H](C(=O)N2CCCCC2)CC(=O)N[C@H](C)C(=O)N(C)[C@@H](C)C(=O)N(C)[C@@H](Cc2ccccc2)C(=O)N(C)[C@@H](CC(C)C)C(=O)N[C@@H]([C@@H](C)O)C1=O [DP-547] ([dA][NMeA][NMeF][NMeL]T[NPrGly][NMeL]S(tBu)[NMeL]D-Piperidide; lactam N-10) : 1470
